src = ChEMBL document CHEMBL5625219

Tested on: RAW264.7
PROTOCOL: Cytotoxicity against mouse RAW264.7 cells assessed as reduction in cell viability at 30 uM incubated for 24 hrs by MTT assay relative to control
Format: toxicity, cell-based
TEST_PARAMETERS: raw264.7, 24 h
PROPERTY_LABEL: Activity
I'd appreciate it if you wrote the number followed by its unit.

Some entries whose results are on file:
SMILES_NOTATION: CC(=O)O[C@H]1C[C@@]2(C)[C@@H](C[C@@H](O)[C@H]3[C@@]4(C)CC[C@@H](O)[C@@H](C)[C@@H]4CC[C@@]32C)/C1=C(\CCC=C(C)C)C(=O)O
SYSTEM_UNDER_TEST: RAW264.7
PROPERTY_LABEL: Activity
EXPERIMENTAL_RESULT: 101.08%

SMILES_NOTATION: CC(=O)O[C@H]1C[C@@]2(C)[C@@H](C[C@@H](O)[C@H]3[C@@]4(C)CC[C@@H](O)[C@@H](C)[C@@H]4CC[C@@]32C)/C1=C(\CCC=C(C)C)C(=O)OCc1cn(Cc2ccc(Br)cc2)nn1
SYSTEM_UNDER_TEST: RAW264.7
PROPERTY_LABEL: Activity
EXPERIMENTAL_RESULT: 100.93%

For CC(=O)O[C@H]1C[C@@]2(C)[C@@H](C[C@@H](O)[C@H]3[C@@]4(C)CC[C@@H](O)[C@@H](C)[C@@H]4CC[C@@]32C)/C1=C(\CCC=C(C)C)C(=O)OCc1cc(-c2ccc(C)cc2)no1 the molecule record lists Activity as 104.48%

Note to self: Activity recorded for COc1cc(Cn2cc(COC(=O)/C(CCC=C(C)C)=C3\[C@@H](OC(C)=O)C[C@@]4(C)[C@H]3C[C@@H](O)[C@H]3[C@@]5(C)CC[C@@H](O)[C@@H](C)[C@@H]5CC[C@@]34C)nn2)cc(OC)c1OC was 97.45%

Just so you know, measured Activity for CC(=O)O[C@H]1C[C@@]2(C)[C@@H](C[C@@H](O)[C@H]3[C@@]4(C)CC[C@@H](O)[C@@H](C)[C@@H]4CC[C@@]32C)/C1=C(\CCC=C(C)C)C(=O)OCc1cn(-c2ccc(C)cc2)nn1 came out at 96.68%
